For each of the molecules below, state its activity change (Venus).
assay-overview: blocks a specific stage of Vaccinia orthopoxvirus infection, primary screen, cell-based, single point (AID 1053133)
measurement-parameters: Vaccinia-infected cells, mCherry/Venus stage reporter fluorescence, stronger effect = lower value, concentration not given here; measured here: Venus reporter, other viral stage
In all, about 89,000 compounds went through this assay and about 10 (0.01%) were called active. Another 10% or so got no clear call; they are omitted. The list is a sample of the results.
Number in %, nothing else.

Request: Sample `O=C(C[C@H]1CC[C@@H]2[C@H](COC[C@H](O)CN2C(=O)c2ccc3c(c2)OCO3)O1)NC1CCC1` — what was its activity change (Venus)?
Result: 9.5

Request: Queued: `COc1ccccc1-c1ccc([C@H]2[C@@H](CO)N(CC3CC3)C23CN(S(C)(=O)=O)C3)cc1`
Result: 0.302

Request: Now the molecule `COc1ccc2c3c([nH]c2c1)[C@@H](CO)N(C(=O)c1cccc(F)c1)CC31CN(C(C)=O)C1`
Result: -6.3

Request: And then `Cc1ccccc1S(=O)(=O)N[C@H]1CC[C@H](CCn2cc(-c3ccc(F)cc3)nn2)O[C@H]1CO` , what is it?
Result: -25.8

Request: Repeat with `COc1cccc(-c2cnc3c(c2)C(=O)N([C@H](C)CO)C[C@H](C)[C@@H](CN(C)Cc2ccc(C(=O)O)cc2)O3)c1`
Result: 12.8

Request: How about `COc1ccc(-c2ccccc2[C@@H]2[C@@H](C#N)N(C(=O)NC3CCCC3)[C@H]2CO)cc1` ?
Result: -17.8

Request: What do you get for `COc1cccc(-c2ccc(CC[C@H]3O[C@H]4CC[C@@H](CO)O[C@H]4C[C@@H]3NS(C)(=O)=O)cc2)c1` ?
Result: -32

Request: Also, `Cc1ccccc1S(=O)(=O)N[C@@H]1CC[C@H](CCn2cc(-c3ccc(F)cc3)nn2)O[C@@H]1CO` please.
Result: -24.8

Request: Field entry: `Cc1cccc(-c2ccc([C@@H]3[C@H]4CN(C(=O)c5ccccc5)CC(=O)N4[C@H]3CO)cc2)c1`
Result: -26.3

Request: Please give the result for `O=C(C[C@@H]1CC[C@@H]2[C@H](COC[C@H](O)CN2Cc2ccc(F)cc2)O1)NCc1ccncn1` too.
Result: 9.14

Request: And for `CN(C)CC(=O)N1[C@H](CO)[C@@H](c2ccc(-c3cccc(C(=O)N(C)C)c3)cc2)[C@@H]1C#N` ?
Result: -1.53

Request: Same for `C/C=C/c1ccccc1[C@H]1[C@@H](C#N)N(C(=O)Cc2ccccn2)[C@@H]1CO`
Result: -12.5

Request: Note, next up: `O=C(C1CCCC1)N1CC(=O)N2[C@@H](CO)[C@@H](c3ccc(-c4cccnc4)cc3)[C@@H]2C1`
Result: -4.04

Request: Would you kindly repeat that for `Cc1ccccc1-c1cnc2c(c1)C(=O)N([C@H](C)CO)C[C@@H](C)[C@H](CN(C)C(=O)c1cccnc1)O2` ?
Result: -1.16

Request: Another molecule to check: `CC(C)C#Cc1cnc2c(c1)C(=O)N([C@H](C)CO)C[C@H](C)[C@@H](CN(C)C(=O)Nc1cc(F)ccc1F)O2`
Result: -6.46

Request: Similarly, `COc1ccc2c3c(n(C)c2c1)[C@H](CO)N(C)CC31CCN(C(=O)Nc2cccc(F)c2)CC1` ?
Result: -8.96

Taken from PubChem BioAssay AID1053133.
